Tested on: Female Balb/c mice
Experiment: Adjuvanticity of lipids: serum anti-KLH IgA, IgG, IgM ELISA (Example 7)
Assay type: in vivo
Conditions: serum day 7 after booster; control KLH + Saline = 1
reported-endpoint: Day 7 Results IgM, score as multiples of the control response
Format: numeric value only, no unit, no commentary.

Which Day 7 Results IgM, score as multiples of the control response is reported for this compound? CCCCCCCCCCCCCCCC(=O)OCC(COP(=O)(O)OCCN)OC(=O)CCCCCCCCCCCCCCC (racemic)
2

Same again, this time with CCCCCCCCCCCCCCCCCC(=O)OC[C@H](COP(=O)(O)OCCN)OC(=O)CCCCCCCCCCCCCCCCC
1

Another compound: CCCCCCCCCCCCCCCC(=O)OCC(COC(=O)CCCCCCCCCCCCC)OC(=O)CCCCCCCCCCCCCCC (racemic)
1

Can you check CCCCCCCCCCCCCCCCC(=O)OC[C@H](COP(=O)(O)O)OC(=O)CCCCCCCCCCCCCCCC next?
2

What about this compound? CCCCCCCCCCCCCC(=O)OCC(COC(=O)CCCCCCCCCCCCC)OC(=O)CCCCCCCCCCCCC
1

Now the compound CCCCCCCCCCCCCCC(=O)OCC(COC(=O)CCCCCCCCCCCCCC)OC(=O)CCCCCCCCCCCCCC
2

----------
System: Female Balb/c mice
Test: Adjuvanticity of lipids: serum anti-KLH IgA, IgG, IgM ELISA (Example 7)
Format: in vivo
Settings: serum day 7 after booster; control KLH + Saline = 1
Sorting guide: entries reporting Day 7 Results IgM, score as multiples of the control response beneath 2 go in the y pile, the rest go in the n pile.

Input CCCCCCCCCCCCCCCCCC(=O)OCC(COC(=O)CCCCCCCCCCCCCCC)OC(=O)CCCCCCCCCCCCCCCCC (racemic) ; condition: Day 7 Results IgM, score as multiples of the control response strictly below 2. Does it hold?
n

What about CCCCCCCCCCCCCCCC(=O)OCC(COC(=O)CCCCCCCCCCCCCCC)OC(=O)CCCCCCCCCCCCCCC ?
y

Let us now turn to CCCCCCCCCCCCCC(=O)OC[C@H](COP(=O)(O)OCCN)OC(=O)CCCCCCCCCCCCC
y

Repeat for the following molecule: CCCCCCCCCCCCCC(=O)OCC(COP(=O)([O-])OCC[N+](C)(C)C)OC(=O)CCCCCCCCCCCCC (racemic)
y

Next molecule: CCCCCCCCCCCCCCCCCC(=O)OCC(COC(=O)CCCCCCCCCCCCC)OC(=O)CCCCCCCCCCCCCCCCC (racemic)
n

Now give it for CCCCCCCCCCCCCC(=O)OC[C@H](COP(=O)(O)O)OC(=O)CCCCCCCCCCCCC too.
y

Check CCCCCCCCCCCCCCCC(=O)N[C@@H](CO[C@@H]1O[C@H](CO)[C@@H](O)[C@H](O)[C@H]1O)[C@H](O)CCCCCCCCCCCCCCC [PC, N-Palmitoyl dihydroglucocerebroside] too.
n

// next record CCCCCCCCCCCCCCCCC(=O)OC[C@H](COP(=O)([O-])OCC[N+](C)(C)C)OC(=O)CCCCCCCCCCCCCCCC
y

----------
System: Female Balb/c mice
Experiment: Adjuvanticity of lipids: serum anti-KLH IgA, IgG, IgM ELISA (Example 7)
Format: in vivo
Conditions: serum day 7 after booster; control KLH + Saline = 1
Would you mind telling me the reported Day 7 Results IgG, score as multiples of the control response of each entry?
Give the figure by itself; no unit, no explanation.

Using the record for CCCCCCCCCCCCCCCC(=O)OCC(COC(=O)CCCCCCCCCCCCCCC)OC(=O)CCCCCCCCCCCCCCC , report its Day 7 Results IgG, score as multiples of the control response.
4

What would you report for CCCCCCCCCCCCCC(=O)OCC(COC(=O)CCCCCCCCCCCCC)OC(=O)CCCCCCCCCCCCC ?
4

Try this compound too: CCCCCCCCCCCCCC(=O)OCC(COP(=O)([O-])OCC[N+](C)(C)C)OC(=O)CCCCCCCCCCCCC (racemic)
2

Same thing, different compound: CCCCCCCCCCCCCCCCCC(=O)OC[C@H](COP(=O)(O)OCCN)OC(=O)CCCCCCCCCCCCCCCCC
6

For CCCCCCCCCCCCCCCC(=O)N[C@@H](CO[C@@H]1O[C@H](CO)[C@@H](O)[C@H](O)[C@H]1O)[C@H](O)CCCCCCCCCCCCCCC [PC, N-Palmitoyl dihydroglucocerebroside] then?
2

Param item: CCCCCCCCCCCCCCCCC(=O)OC[C@H](COP(=O)([O-])OCC[N+](C)(C)C)OC(=O)CCCCCCCCCCCCCCCC
10
